meta.source: the Immune Epitope Database (IEDB)

- test.target: HLA-B*40:01
- assay.explanation: IEDB peptide-MHC binding, purified MHC/direct/fluorescence; filed as Kd, often an IC50 or EC50 that approximates it; bounds were set here for any values at or beyond the usual limits of such assays
- run.parameters: source organism: Giardia lamblia ATCC 50803
reported.endpoint: Kd

[
  {
    "sequence.input": "KVGVYKMHK",
    "reported.endpoint": "Kd",
    "result": "≥ 20 µM"
  },
  {
    "sequence.input": "YLDMVLAFL",
    "reported.endpoint": "Kd",
    "result": "≥ 20 µM"
  },
  {
    "sequence.input": "DEKPKVMEG",
    "reported.endpoint": "Kd",
    "result": "≥ 20 µM"
  }
]

Now for the sequence whose Kd we want.
[ask] Write Kd of `RTDPVIDNI` ; system used: HLA-B*40:01
[reply] ≥ 20 µM
